Each entry below carries its recorded pest or weed control at 200 ppm.
tested on: Magnaporthe grisea (Pyricularia oryzae); test: whole plant or invertebrate; type: in vivo; details: foliar, read-out: control of Magnaporthe grisea

Recorded pest or weed control at 200 ppm, per entry:
Compound	pest or weed control at 200 ppm
CC1(NC(=O)c2nc(Nc3cc(F)cc(F)c3)cc3c2OCO3)CSC1 [Compound P-19]	≥ 80%
CC1(NC(=O)c2nc(Nc3cc(F)cc(F)c3)cc3c2OCO3)CCCCC1 [Compound P-26]	≥ 80%
CC(C)(C)CNC(=O)c1nc(Nc2cncc(F)c2)cc2c1OCO2 [Compound P-14]	≥ 80%
CC1(NC(=O)c2nc(Nc3cc(F)cc(F)c3)cc3c2OCO3)CCCC1 [Compound P-25]	≥ 80%

Could you now look at the following compound, please?
Value of pest or weed control at 200 ppm reported for the compound CC(C)(C)CNC(=O)c1nc(Nc2cccc(F)c2)cc2c1OCO2 [Compound P-15] is ≥ 80%
